# testedSystem: hLPA5 (Homo sapiens, UniProt Q9H1C0)
# Sequence (Q9H1C0 whole entry): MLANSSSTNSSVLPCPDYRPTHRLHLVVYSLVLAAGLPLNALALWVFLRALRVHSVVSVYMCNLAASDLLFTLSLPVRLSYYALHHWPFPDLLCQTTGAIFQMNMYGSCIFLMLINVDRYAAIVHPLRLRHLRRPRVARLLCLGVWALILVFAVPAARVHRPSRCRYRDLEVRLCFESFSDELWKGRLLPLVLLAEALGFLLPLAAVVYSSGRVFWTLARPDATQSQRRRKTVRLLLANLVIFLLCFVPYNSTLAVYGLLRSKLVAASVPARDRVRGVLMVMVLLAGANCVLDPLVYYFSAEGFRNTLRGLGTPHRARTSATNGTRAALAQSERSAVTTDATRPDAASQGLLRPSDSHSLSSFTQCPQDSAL
# testDetails: LPA5 TR-FRET Lance Ultra cAMP assay
# Format: cell-based
# settings: cAMP assay
measurementLabel: fold less potent than 2

Answered examples (2):
| structureString | fold less potent than 2 |
| --- | --- |
| COc1cc2c(C(=O)N3CCC(C#N)CC3)cn(-c3cccc(N(C)C)c3)c(=O)c2cc1OC | 4 – 10 fold |
| C#CC1CCN(C(=O)c2cn(-c3ccc4scc(C)c4c3)c(=O)c3cc(OC)c(OC)cc23)CC1 | 1.7 fold |

Enquiry: Check the records and state fold less potent than 2 for COc1cc2c(C(=O)N3CCC(F)CC3)cn(-c3cccc(N(C)C)c3)c(=O)c2cc1OC
Return: 4 – 10 fold

Enquiry: Check the records and state fold less potent than 2 for C#CC1CCN(C(=O)c2cn(-c3cccc(N(C)C)c3)c(=O)c3cc(OC)c(OC)cc23)CC1
Return: 4 – 10 fold

src = paper PMC10155261
